Task for the reader: assign each of the following sequences its reported apparent KD of MS2 coat protein.
System: MS2 coat protein
assay_explanation: apparent KD of MS2 coat protein, switch ON state; designed switch direction (-1 OFF switch, 1 ON switch): -1; higher = weaker reporter binding
stated_conditions: FMN input: 0 or 200 uM; Eterna round: R93 (includes R88 designs)
Units required after the number.

Entry AAGAACCUAGGAUAUACUUGGGUAACUAAUAAACUGAUAUAACAUGAGGAUCACCCAUGUAGAAGGAGGAGAAA [JR_Exc002_Sub204] , tested on MS2 coat protein, has a reported apparent KD of MS2 coat protein of 50.1 nM

Entry AAAAAACAUGAGGAUCACCCAUGUAAGGAUAUGCCUAAAAAAAAAAAAAAAAAAAAUGGCAGAAGGUGCAAAAA [excalibur15] , tested on MS2 coat protein, has a reported apparent KD of MS2 coat protein of 41.6 nM

Entry AGCUAGUCAGGAUAUACGAAAAUGUACGAAGCUGAGAAGGGACAUGAGGAUCACCCAUGUAGAAGGGACUAGCA [Diamond 35] , tested on MS2 coat protein, has a reported apparent KD of MS2 coat protein of 39.2 nM

Entry AAGAAGGUAGGAUAUACAUGAGGAUCACCCAUGUAAAAGAAAGAAGGGAAAGAGAAAAGUAGAAGGACCAAGAA [Rudamon] , tested on MS2 coat protein, has a reported apparent KD of MS2 coat protein of 33.4 nM
